tested on: SW-620; assay: NCI tumour cell line growth inhibition, 48 h
Calls of active or inactive are those of the source. No stated cut-off is given here; in the data, active = GI50 up to about 1.1 µM and inactive = higher.
Please reply with one of these outcomes: active, inactive

Below are worked cases with known answers.
Compound	Class label
CSc1ccc(NC(=O)CCl)cc1	inactive
COc1cc(C(C#N)NNC(=O)c2ccccc2O)ccc1O (centres undefined)	inactive

Task: Recorded call for Cc1c(O)c(O)cc[n+]1C1OC(CO)C(O)C1O (centres undefined) ?
Output: inactive

Task: Hi team, can someone confirm the assay call for `O=C(NC/C(Cl)=C/Cl)Nc1cccc2c1CCCC2` ?
Output: inactive

Task: Given `C=CCn1c(N)c(C#N)c(C#N)c1CCC` , state the outcome it received in this test.
Output: inactive

Task: Would you mind telling me which call this test gave CC1(C)SC2C(C(=O)O)N=C(Cc3ccccc3)N2C1C(=O)O (centres undefined) ?
Output: inactive

Task: Entry CC(C)NC(C)Cc1ccccc1 (centres undefined) : call = ?
Output: inactive

Task: Kindly provide the recorded test outcome for the following compound: `Cc1cc(C)n(C(=O)CSc2nnc(SCC(=O)n3nc(C)cc3C)s2)n1`
Output: inactive

Task: # fetch the recorded call for `CC(C)=CCc1c(OC(=O)c2c(C)cc(O)cc2O)cc(CO)c(CO)c1O` here
Output: inactive

Task: Can you look up the reported call for `Oc1cc(C2OCCCO2)cc(O)c1O` for me?
Output: inactive
